Hello, the source for this data is ChEMBL document CHEMBL3784920, in case you need it.

System: Oryctolagus cuniculus
Experiment: Toxicity in New Zealand white rabbit myocardial ischemia/reperfusion injury model assessed as mean blood pressure at 1.79 umol/kg, administered as single bolus dose at 180 mins of reperfusion (reference value: 60 +/- 4 mmHg)
Assay type: organism-based
Details: in vivo, iv, 3 h
// label = true (1) if Activity is not less than 80 mmHg, otherwise false (0)

{"columns": ["compound", "assigned_label"],
 "data": [
  ["[Na+].[SH-] [SODIUM HYDROSULFIDE]", "false (0)"],
  ["Nc1ncnc2c1ncn2CCCCO", "true (1)"],
  ["NC(=S)c1ccc(OC[C@H]2O[C@@H](n3cnc4c(N)ncnc43)[C@H](O)[C@@H]2O)cc1", "false (0)"]
]}

Task item: Determine whether measured Activity meets or exceeds 80 mmHg for NC(=O)c1ccc(OCCCCn2cnc3c(N)ncnc32)cc1
Reply: false (0)
